pIC50: recorded values
- ASSAY_SYSTEM: ^3 H-spiperone (^3 H-SPIP) receptor binding, cerebral cortex (Rattus norvegicus, UniProt P14842)
- Sequence (P14842 whole entry): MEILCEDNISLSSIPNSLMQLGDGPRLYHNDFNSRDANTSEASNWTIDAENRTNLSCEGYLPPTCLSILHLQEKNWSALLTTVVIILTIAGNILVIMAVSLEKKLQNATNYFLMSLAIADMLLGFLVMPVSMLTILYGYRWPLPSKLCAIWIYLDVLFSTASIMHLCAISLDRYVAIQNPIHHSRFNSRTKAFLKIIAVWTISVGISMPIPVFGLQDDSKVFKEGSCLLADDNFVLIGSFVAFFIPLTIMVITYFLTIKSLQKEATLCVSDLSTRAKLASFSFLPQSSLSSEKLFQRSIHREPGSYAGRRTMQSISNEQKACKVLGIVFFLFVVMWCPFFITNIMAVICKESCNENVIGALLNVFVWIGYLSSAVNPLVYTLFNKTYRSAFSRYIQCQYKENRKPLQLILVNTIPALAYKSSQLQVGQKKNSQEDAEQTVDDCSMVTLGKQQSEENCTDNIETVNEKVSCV
The read-out pIC50 is expressed as -log10 of concentration in moles per litre.

Reference set, count: 2
> print(dat)
                                   compound  measured.value
1  CCCN(CCC)C1Cc2c[nH]c3ccc(C(N)=O)c(c23)C1 (racemic)            5.30
2  CCCN(CCC)C1Cc2c[nH]c3ccc(C#N)c(c23)C1 (racemic)            6.41

Consider now this further compound.
Qu. Fill in pIC50 for record CCCN(CCC)C1Cc2c[nH]c3ccc([N+](=O)[O-])c(c23)C1 (racemic)
Ans. 6.40
